experiment: yeast display, Sf9 membrane polyspecificity reagent, FACS + sequencing; frameworks hold sequencing errors
test.readout: polyreactivity (PSR sort gate)

Example entries begin here.
ordered_residues=QVQLVESGGGLVQAGGSLRLSCAASGITFLVYVMGWYRQAPGKERELVAAISSGGSTYYADSVKGRFTISRDNAKNTVYVQMNSLKPEDTAVYYCAAERKLYGLYDYWGQGTQVTVSS observed_result="low polyreactivity"
ordered_residues=QVQLVESGGGLVQAGGSLRLSCAASGFTFKRYAMGWYRQAPGKERELVAAISWSGGSTYYADSVKGRFTISRDNAKNTVYLQMNSLKPEDTAVYYCNAVCRFSTRREYWGQGTQVTVSS observed_result="high polyreactivity"
ordered_residues=QVQLVESGGGLVQAGGSLRLSCAASGFTFYGYAMGWYRQAPGKDRELVARITVRGSTTYYADSVKGRFTISRDNAKNTVYLQMNSLKPEDTAFYYCNASWVYSRFRPLDYDLDYWGQGTQVTVSS observed_result="low polyreactivity"
ordered_residues=QVQLVESGGGLVQAGGSLRLSCAASGRTFYIYAMGWYRQAPGKERELVAAITWSGGSSTYYADSVKGRFTISRDNAKNTVYLQMNSLKPEDTAVYYCAAETHYYWYEQYDYWGQGTQVTVSS observed_result="high polyreactivity"

API: the following record is the query input.
Enquiry: # get_value(readout='polyreactivity (PSR sort gate)', item= QVQLVESGGGLVQAGGSLRLSCAASGFNFYLNAMGWYRQAPGKERELVAAISSSGGITYYADSVKGRFTISRDNAKNTVYLQMNSLKPEDTADYSCAAYWPKYRYEAERDYWGQGTQVTVSS )
Return: low polyreactivity

====

assay: yeast display, Sf9 membrane polyspecificity reagent, FACS + sequencing; frameworks hold sequencing errors
test.readout: polyreactivity (PSR sort gate)

ordered_residues=QVQLVESGGGLVQAGGSLRLSCAASGRTFKPYAMGWYRQAPGIERELVARISGSGGSTYYADSVKGRFTISRDNGKNTVYLQLNSLKPEDTAVYYCATTPYYWFDYWGQGTQVTVSS test_readout="polyreactivity (PSR sort gate)" observed_result="low polyreactivity"
ordered_residues=QVQLVESGGGLVQAGGSLRLSCAASGSTFTIYAMGWYRQAPGKERELVAAITWNGGSTYYADSVKGRFTISRDNAKKTVYLQMNRLKPEDTAVYYCAAKFRYQYVRVAREYYYWGQGTQVTVSS test_readout="polyreactivity (PSR sort gate)" observed_result="high polyreactivity"
ordered_residues=QVQLVESGGGLVQAGGSLRLSCAASGRIFRYYAMGWYRPAPGKERELVAAITRSGGITYYADSVKGRFTISRDNAKNTVYLQLNSLKPEDTAVYYCAVRGAGWPSVRAFGYDYWGQGTQVTVSS test_readout="polyreactivity (PSR sort gate)" observed_result="high polyreactivity"
ordered_residues=QVQLQECGGGLVQAGGSLRLSCAASVNIFDADIMGSYRQAPGKERELVASVTDGGSTNYADSVKGRFTISRDNAKNTVYLQMNSLKPEDTAVYYCAGIVYPDILTFFDYDYDYFYWGQGTQVTVGS test_readout="polyreactivity (PSR sort gate)" observed_result="low polyreactivity"
ordered_residues=QVQLVESGGGLVQAGGSLRLSCAASGRIFDLYTMGWYRQAPGKERELVAAITSSGDSTYYADSVKGRFTISRDNAKNTVYLQMNSLKPEDTAVYYCAAESKYWEPWWYYYYDMDYWGQGTQVTVSS test_readout="polyreactivity (PSR sort gate)" observed_result="low polyreactivity"

Enquiry: Find the recorded polyreactivity (PSR sort gate) belonging to QVQHVESVGGLVQAGGSLRLSCAASGSIFFWYDMGWYRQAPGKERELVASISSGGSTYYADSVKGRFTISRDNAKNTVYLQMNSLKPEDNAVYYCNAKSWSPAKSFSFFRFDYWGQGTQVTVSS and report it.
Return: low polyreactivity

Enquiry: Field request: polyreactivity (PSR sort gate) | item: QVQLVESGGGLVQAGGSLRLSCASSGSIFRRNVMGWYRQAPGKERELVASITGRGGSTYYADSVKGRFTISRDNAKNTVYLQMNSLKPEDTAVYYSNADSLRTYDWYTRTVGYGYWVQGTQVTVSS
Return: high polyreactivity

====

assay: yeast display, Sf9 membrane polyspecificity reagent, FACS + sequencing; frameworks hold sequencing errors
test.readout: polyreactivity (PSR sort gate)

Consider the following illustrative entries.
ordered_residues=QVQLVESGGGLVQAGGSLRLSCAASGFIYGGNPRGWYRQAPGKERELVAANRSGGSTYYADSVKGRFTISRDNAKNTVYLQMNILKPEDTAVYYCAVRLRYAYRARGNYWGQGTQVTVSS test_readout="polyreactivity (PSR sort gate)" observed_result="low polyreactivity"
ordered_residues=QVQLVESGGGLVQAGGSLRLSCAASGSIFDHYAMGWYRQAPGKERELVAAIRTDGSTKYADSVKGRFTISRDNAKNTVYLQMNSLKPEDTAVYYCAATTGYTARWRNRYIYSYWGQGTEVTVSS test_readout="polyreactivity (PSR sort gate)" observed_result="high polyreactivity"
ordered_residues=QVQLVESGGGLVQAGGSLRLSCAASGNIFYINAMGWYRQAPGKERELVAAISSGGRTNYADSVKGRFTISRDNAKNTVYLQMNSLKPEDTAVYYCGAEGPEIKYYYWGQGTQVTVSL test_readout="polyreactivity (PSR sort gate)" observed_result="low polyreactivity"
ordered_residues=QVQLVESGGGLVQAGGSLRLSCAASGLIFNLYAMGWYRQAPGKEREFVATITGIGGSTYYADSVKGRFTISRDIAKNTVYLQMNSLKPDDTAVYYCAADAWFVPYNYWGQGTQVTVSS test_readout="polyreactivity (PSR sort gate)" observed_result="low polyreactivity"
ordered_residues=QVQLVESGGGLVQAGGSLRLICAASGNTFRYYAMGWYRQAPGKERELDAAINSRGGTTSYADSVKGRFTISRDNAKNTVYLQMNSLKPEDTAVYYCAARSYYRGTFYPYYYWGQGTQVTVSS test_readout="polyreactivity (PSR sort gate)" observed_result="high polyreactivity"
ordered_residues=QEQLQESGGGLVQAGGSLRLSSAASGSISGSSTMGWYRQAQGKERELVASIAVGANTNYADSAKGRFTISRDNAKNTVYLQMNSLKPEDTAVYYCAVDYYIYYFHYWGQGTQVTVSS test_readout="polyreactivity (PSR sort gate)" observed_result="high polyreactivity"
ordered_residues=QVQLVESAGGLVQAGGSLRLICAASGGTFVGYAMGWYRQAPGKERELVAAISRRGGSTYYADSVKGRFTISRDNAKNTVYLQMNSLKPEDTAVYYCAKSEHRSVPQYDYWGQGTQVTVSS test_readout="polyreactivity (PSR sort gate)" observed_result="high polyreactivity"
ordered_residues=QVQLVESGGGLVQAGGSLRLSCAASGSILTDNAMGWYRQAPGKERELVAAITSSGNTNYADSVKGRFTISRDNAKNTVYLQMKSLKPEDTAVYYCAAVSYYKHWTDWLPVGEDYWGQGTQVTVSS test_readout="polyreactivity (PSR sort gate)" observed_result="low polyreactivity"
ordered_residues=QVQLVESGGGLVQAGGSLRLSCAASGLTLRWYDMGWYRQAPGKERELVAAITTNGGSTYYADSVKGRFTISRDNAKNTVYLQMNSLKPEDTAVYYCAALYWRSTVGAYSTYEYDYWGQGTQVTVSS test_readout="polyreactivity (PSR sort gate)" observed_result="high polyreactivity"
ordered_residues=QVQRVESGGGLVQAGGSLRLSCAASGLTSKFYAMGWYRQAPRKERELVAAISGSGGSTYYADSVKGRFTISRDKAKNTVYLQMNSLKPEDTAVYYFAARYFGLRYYYWGQGTQVTVSS test_readout="polyreactivity (PSR sort gate)" observed_result="high polyreactivity"

Enquiry: Given QVQLVESGGGLVQAGGSLRLSCAASGLTFDPYALGWYRQAPGKERELVATISWSTSSTYYADSVKGRFTISRDNAKNTVYLQMNSLKPEDTAVYYCNAGYIESWFLQWIEYDYWGQGTQVTVSS , state its recorded polyreactivity (PSR sort gate).
Return: high polyreactivity

Enquiry: # input sequence: QVQLVESGGGLVQAGGSLRLSCAASGRTFPRYAMGWYRQAPGKERELVAGISWSGGRTYYADSVKGRFTISRDNAKNTVYLQMNSLKPEDTAVYYCAVVSKNLSYRTTFYYWGQGTQVTVSS ; wanted: its polyreactivity (PSR sort gate)
Return: high polyreactivity

Enquiry: Reported polyreactivity (PSR sort gate), sequence QVQLVESGGGLVQAGGSLRLSCAASGRTFPTNAMGWYRQAPGKERELVARITWSGGSTYADSVKGRFTISRDNAKNTVYFQMNSLKPEDTAVYYCAARGYKPQFPWRRYDYWGQGTQVTVSS : ____
Return: high polyreactivity

Enquiry: // polyreactivity (PSR sort gate) lookup, key: QVQLVESGGGLVQAGGSLRLSCAASGSIFPSYAMGWYRQAPGKERELVAAINWDGGSTFYADSVKGRFTISRDNAKNTVYLQMKSLKPEDTAVYYCAAPDNYGGVGGITFWRMDYWGQGTQVTVSS
Return: low polyreactivity

Enquiry: Request the reported polyreactivity (PSR sort gate) associated with QVQLVESGGGLVQAGGSLRLSCAASGSIFYSYAMGWYRQAPGKERELVAAISYSSGSTYYADSVKGRFTISRDNAKNTVYLQMNSLKPEDTAVYDCAAEGNGWQVDVTEVGEYDSWGQGTQVTVSS
Return: high polyreactivity

Enquiry: # get_value(readout='polyreactivity (PSR sort gate)', item= QVQLVESGGGLVQAGGSLRLSCSASGITFWYNAMEWYRQAPGKERELVAAISRSAGSTYYADSVKGRFTISRDNAKNTVYLQMNSLKPEDTAVYYCAAKTPGRYYYWGQGTQVTVSS )
Return: high polyreactivity

Enquiry: I'd like to know its polyreactivity (PSR sort gate). The sequence in question is QDQLVESGGGLVQAGGSLRLSCAASGFIFWRNTMGWYRQAPGKERELVAVITRGGSTYYADSVKGRFTISRDNAKNTVYLQMNSLKPEDTAVYYCAALNDYYKTFSGYDYWGQGTQVTVSS
Return: low polyreactivity

Enquiry: Any idea what its polyreactivity (PSR sort gate) is? The sequence is QVQLVESGGGLVQAGGSLRLSCASSGRTFARNVMGWYRQAPGKERELVAAIRGSGGSTYYADSLKGRFTISRDNGKNTVYLQMNSLKTEDTAVYYCAADSSYTKRHSPTKLHFDYWGQGTQVTVSS
Return: high polyreactivity

Enquiry: Would you mind telling me what polyreactivity (PSR sort gate) value was observed for QVQLVESGGGLVQAGGSLRLSCAASGRILAAYTMGWYRQAPGKERELVAAITRGGSRTNYADSVKGRFTISRDNAKNTVYLQMNSLKPEDTAVYYCAATWSAYRRWGYDYWGQGTQVTVSS ?
Return: high polyreactivity

Enquiry: Quick one: polyreactivity (PSR sort gate) for QVHLVESGGGLVQAGGSLRLSSAASGRIFYNYTMRWYRQAPGKERELVAAITRSGSSTYADSVKGRFTISRDNGKNTVYLQMNSLKQEDTAVYYCAGEYIRRYDYWGQGTQETVSS ?
Return: low polyreactivity

Enquiry: I would be grateful if you could share the reported polyreactivity (PSR sort gate) for QVQLVESGGGLVQAGGSLRLSCAASGFTFVVYAMGWYRQAPGKERELVAAISARGGRTYYADSVKGRFTISRDNAKNTVYLQMNSLKPEDTAVYYCAATNQRQTRYDYWGQGTQVTVSS .
Return: high polyreactivity
